Assay: in vitro
Conditions: human, hek293t cells
MEASURE_NAME: viability at 48 h, 25 µM (%)

INSERT INTO results (compound, reported_result) VALUES
  ('C=CC(=O)Nc1cccc(C(=O)C(C)(C)C)c1 [2-I18]', 105),
  ('N#CC(=Cc1cccc2c1OCO2)C(=O)Nc1cccc2ccccc12 [8-K12]', 63.4),
  ('C=CCNC(=O)C(C#N)=Cc1cnn(-c2ccc(Cl)cc2)c1 [9-M16]', 115),
  ('Cc1cc(N2CCCC(NC(=O)C(C)Cl)C2=O)n(C)n1 (stereo not drawn) [7-B13]', 95.8),
  ('CC(NC(=O)CCl)c1nnc(-c2cccc(F)c2)s1 (stereo not drawn) [5-F13]', 0.963),
  ('CC(Cl)C(=O)N1c2ccccc2NC(=O)C1(C)C (stereo not drawn) [4-C08]', 69.5);

* * *

Assay: in vitro
Settings: human, hek293t cells
A collection of compounds and their measured viability at 48 h, 25 µM
MEASURE_NAME: viability at 48 h, 25 µM (%)

INSERT INTO assay_data (compound, reported_result) VALUES
  ('CN1C(=O)Cc2cc(C(=O)CCl)ccc21', 46.1),
  ('CC(=O)Nc1ccc(C(=O)C(C)Cl)cc1 (centres unmarked) [10-K06, N-[4-(2-chloropropanoyl)phenyl]acetamide]', 101),
  ('N#CC(=Cc1ccco1)C(=O)Nc1cc2c(cc1Cl)NC(=O)CO2', 87),
  ('CC(Cl)C(=O)Nc1ccc2oc(=O)n(CCN(C)C)c2c1 (centres unmarked)', 109),
  ('C=CC(=O)N(Cc1cnn(C(C)C)c1)c1ccc2nc(C)oc2c1', 185);

* * *

A collection of compounds and their measured viability at 48 h, 25 µM
Assay: in vitro
Details: human, hek293t cells
MEASURE_NAME: viability at 48 h, 25 µM (%)

INSERT INTO results (compound, measure_name, units, reported_result) VALUES
  ('C=CC(=O)NCc1c(Cl)c(C(F)(F)F)nn1C', 'viability at 48 h, 25 µM', '%', 72.8),
  ('Cc1cccc(-n2cc(C(=O)CCl)nn2)c1', 'viability at 48 h, 25 µM', '%', 81.5),
  ('C=CC(=O)N(CC)Cc1cn(C)nn1', 'viability at 48 h, 25 µM', '%', 105),
  ('CC1CSc2ccccc2N(C(=O)CCl)C1 (stereo not drawn)', 'viability at 48 h, 25 µM', '%', 0.825),
  ('C=CC(=O)Nc1ccccc1Cl [1-O10, N-(2-chlorophenyl)prop-2-enamide]', 'viability at 48 h, 25 µM', '%', 63),
  ('CCOc1ccc(C=C(C#N)C(=O)N2CCc3sccc3C2)cc1', 'viability at 48 h, 25 µM', '%', 61.5);

* * *

A collection of compounds and their measured viability at 48 h, 25 µM
Assay: in vitro
Conditions: human, hek293t cells
MEASURE_NAME: viability at 48 h, 25 µM (%)

INSERT INTO assay_data (compound, reported_result) VALUES
  ('COc1ccc(C2CCCN2C(=O)CCl)cc1OC (centres unmarked)', 0.75),
  ('CC(Cl)C(=O)NCC1CCN(C)c2ccccc21 (centres unmarked)', 79.9),
  ('Cc1ccc(C)c(C=C(C#N)C(=O)NC(C)C)c1', 125),
  ('CC(Cl)C(=O)NCC1CC(=O)N(c2ccccc2)C1 (centres unmarked)', 85.1),
  ('CC(Cl)C(=O)NCCN1CCn2nccc2C1 (centres unmarked)', 98.4),
  ('CCN(C(=O)CCl)c1ccccc1 [6-E15, 2-chloro-N-ethyl-N-phenylacetamide]', 1.62),
  ('COc1ccc([C@H]2C[C@H](NC(=O)C(C)Cl)C2)cc1F (some centres unmarked)', 91.5),
  ('CC(C)Cn1c(N)c(C(=O)CCl)c(=O)[nH]c1=O', 91.2),
  ('CC(C)c1ccc(CCNC(=O)CCl)cc1', 71),
  ('C=CC(=O)N1CCCN(S(=O)(=O)c2ccc(OC)cc2)CC1', 96.8),
  ('C=CC(=O)N1CCC(NC(C)=O)C1 (centres unmarked)', 114),
  ('O=C(CCl)Nc1c(Cl)cccc1C(F)(F)F', 1.62),
  ('Cc1cc(C(=O)CCl)co1', 41.5),
  ('C=CC(=O)N1CCC(C(=O)N2CCCC(O)C2)(c2ccccc2)CC1 (centres unmarked)', 93.3),
  ('CC(C)C(=O)Nc1ccc(C(=O)C(C)Cl)cc1 (centres unmarked)', 100),
  ('C=CC(=O)NC1C(=O)OCC1(C)C (centres unmarked)', 83.7),
  ('CC(Cl)C(=O)Nc1ccc(Cl)c(S(=O)(=O)N(C)C)c1 (centres unmarked)', 78.5),
  ('C=CC(=O)N1CCC(C(=O)N2Cc3ccc([N+](=O)[O-])cc3C2)CC1', 82.7),
  ('CC(Cl)C(=O)NC1CCN(S(C)(=O)=O)C1 (centres unmarked)', 94.9),
  ('C=CC(=O)N(Cc1cccc2ccoc12)C1CCSCC1', 70.4),
  ('Cc1ccc(C)c(NC(=O)C(C#N)=Cc2cccn2C)c1', 87.8),
  ('CC(Cl)C(=O)NCC(c1ccccc1)c1nnc[nH]1 (centres unmarked)', 114),
  ('C=CC(=O)NCCc1c(C)oc2ccccc12', 119);

* * *

A collection of compounds and their measured viability at 48 h, 25 µM
Experiment: in vitro
Details: human, hek293t cells
MEASURE_NAME: viability at 48 h, 25 µM

INSERT INTO assay_data (compound, reported_result) VALUES
  ('C=CC(=O)N(C[C@H]1CCCO1)C1CCC(CC)CC1 (stereo partly drawn)', '94.6%'),
  ('O=C(CCl)Cc1ccc(Cl)c(Cl)c1', '1.56%'),
  ('C=CC(=O)N1CCOC2(CCS(=O)(=O)C2)C1 (stereo not drawn)', '101%'),
  ('COC(=O)Cc1ccc(C(=O)CCl)s1', '76.1%'),
  ('CN(Cc1cc(-c2ccccc2)[nH]n1)C(=O)CCl', '0.109%'),
  ('CC(Cl)C(=O)NCCc1cn(C)nn1 (stereo not drawn)', '82.7%');

* * *

Test: in vitro
Conditions: human, hek293t cells
MEASURE_NAME: viability at 48 h, 25 µM (%)

INSERT INTO results (compound, reported_result) VALUES
  ('Cc1cc(N(CCC#N)C(=O)CCl)ccc1Cl', 0.75),
  ('CC(c1ccc(C(F)(F)F)cc1F)N(C)C(=O)CCl (centres unmarked)', 0.35),
  ('C=CC(=O)NCCN1C(=O)SC(=Cc2ccc(Cl)cc2)C1=O', 87.2),
  ('C=CC(=O)N1CCC(C(=O)NCc2nccn2C)(c2ccccc2)CC1', 92.9),
  ('Cc1cc(-n2c(C)cc(C=C(C#N)C(=O)NC3CCCC3)c2C)no1', 91.8);

* * *

Experiment: in vitro
Conditions: human, hek293t cells
MEASURE_NAME: viability at 48 h, 25 µM (%)

INSERT INTO assay_data (compound, units, reported_result) VALUES
  ('CC(Cl)C(=O)NCc1cc2sccc2s1 (centres unmarked)', '%', 109),
  ('Cc1ccccc1NC(=O)C(C#N)=Cc1ccc(N2CCCCC2)cc1', '%', 91.8),
  ('O=C(CCl)N(Cc1ccccc1)CC(F)(F)F', '%', 1.12),
  ('Cc1n[nH]c(C)c1C=C(C#N)C(=O)Nc1ccc(SC(F)F)cc1', '%', 78.2),
  ('CC(Cl)C(=O)NCc1noc2ccccc12 (centres unmarked)', '%', 77.8),
  ('C=CC(=O)N(CCO)c1ccc(C(=O)O)cc1', '%', 96.4),
  ('NC(=O)c1ccc(NC(=O)CCl)cc1 [4-P04, 4-(2-chloroacetamido)benzamide]', '%', 0.712),
  ('CCN(Cc1ccc(OC)c(F)c1)C(=O)CCl', '%', 1.38),
  ('C=CC(=O)N1CCCC(n2cc(C)cn2)C1 (centres unmarked)', '%', 94.4),
  ('Cc1noc(C)c1CN(C(=O)CCl)C1CC1', '%', 0.0855),
  ('Cc1ccc(C=C(C#N)C(=O)Nc2ccccc2Cl)s1', '%', 107);

* * *

Assay: in vitro
Details: human, hek293t cells
A collection of molecules and their measured viability at 48 h, 25 µM
MEASURE_NAME: viability at 48 h, 25 µM (%)

INSERT INTO assay_data (molecule, reported_result) VALUES
  ('CC(Cl)C(=O)NCCc1nc(C2CCCCC2)cs1 (stereo not shown)', 84.8),
  ('C=CC(=O)Nc1cnc2cc(C)nn2c1', 136),
  ('CC(Cl)C(=O)N1CCC(C(=O)c2cccs2)CC1 (stereo not shown)', 86.7),
  ('C=CC(=O)NCc1ccccc1S(=O)(=O)N1CCOCC1', 89.1),
  ('C=CC(=O)NCC(F)(F)C1(OC)CCC1', 82.7),
  ('CC1CCc2c(sc(NC(=O)CCl)c2C(=O)OC(C)C)C1 (stereo not shown)', 73.7),
  ('CC(Cl)C(=O)NC(C)C(=O)N1CCc2ccccc21 (stereo not shown)', 84.1),
  ('O=C(CCl)N1CCN(S(=O)(=O)c2ccc([N+](=O)[O-])cc2)CC1', -0.414),
  ('O=C(CCl)c1cn(-c2cccc(C(F)(F)F)c2)nn1', 2.55),
  ('CC(Cl)C(=O)N1CC(S(=O)(=O)c2ccccc2F)C1 (stereo not shown)', 96.3),
  ('CC(Cl)C(=O)N1CCN(C(=O)Cc2cccc(Cl)c2)C(C)C1 (stereo not shown)', 65.1),
  ('N#Cc1ccc(C(=O)CCl)cc1', 49),
  ('CC(Cl)C(=O)NCCc1nc2cc(F)ccc2s1 (stereo not shown)', 89.1),
  ('C=CC(=O)Nc1cc(-c2ccco2)nn1C(C)(C)C', 118),
  ('O=C(CCl)NC1CCCc2nc(-c3ccccc3)sc21 (stereo not shown)', 0.382),
  ('Cn1cc(C=C(C#N)C(=O)Nc2ccccc2F)c(-c2ccncc2)n1', 130),
  ('CC(Cl)C(=O)N1CCc2sccc2C1c1cccs1 (stereo not shown)', 87.1),
  ('C=CC(=O)N(C)Cc1ccn(CC)n1', 75.2),
  ('C=CC(=O)NCCc1coc(-c2ccc(C)cc2)n1', 68.3),
  ('Cc1cc(CN(Cc2ccn(C)n2)C(=O)CCl)ccc1F', 0.658),
  ('CC(Cl)C(=O)NC(C)c1ccc(Cl)cc1Cl (stereo not shown)', 69),
  ('Cc1ccc(NC(=O)C(C)Cl)cc1S(=O)(=O)N1CCOCC1 (stereo not shown)', 77.8);
